targetOrSystem: Adrenergic receptor alpha-1 (Rattus norvegicus, UniProt P15823+P23944+P43140)
assayDetails: In vitro inhibitory concentration against radioligand [3H]prazosin binding to alpha-1 adrenergic receptor in rat cortical membrane.
Type: cell membranes
Listed here are compounds together with their documented log10 IC50.
Recorded IC50 (log10, nM)

Known results for compounds:
>  <compoundStructureString>
COc1ccccc1C1CCN(CCCSc2nc3sc(C)c(C)c3c(=O)n2N)CC1

>  <log10 IC50>
1.56

$$$$
>  <compoundStructureString>
Cc1sc2nc(SCCCN3CCN(c4ncccn4)CC3)nc(O)c2c1C

>  <log10 IC50>
3.04

$$$$
>  <compoundStructureString>
COc1ccccc1N1CCN(CCc2nn3c(=O)c4c(C)c(C)sc4nc3s2)CC1

>  <log10 IC50>
2.10

$$$$
>  <compoundStructureString>
Cc1sc2nc(SCCCN3CCN(c4cccc(Cl)c4)CC3)nc(O)c2c1C

>  <log10 IC50>
2.48

$$$$

What measured log10 IC50 goes with "Cc1sc2nc(SCCCN3CCN(c4ncccn4)CC3)n(C)c(=O)c2c1C" ?
3.31

What measured log10 IC50 goes with "COc1ccccc1N1CCN(CCCSc2nc3sc(C)c(C)c3c(=O)n2N)CC1" ?
0.86

What measured log10 IC50 goes with "COc1ccccc1N1CCN(CCCSc2nc(O)c3c4c(sc3n2)CCCC4)CC1" ?
1.58

###

targetOrSystem: UniProtKB P19327
Sequence (P19327 whole entry): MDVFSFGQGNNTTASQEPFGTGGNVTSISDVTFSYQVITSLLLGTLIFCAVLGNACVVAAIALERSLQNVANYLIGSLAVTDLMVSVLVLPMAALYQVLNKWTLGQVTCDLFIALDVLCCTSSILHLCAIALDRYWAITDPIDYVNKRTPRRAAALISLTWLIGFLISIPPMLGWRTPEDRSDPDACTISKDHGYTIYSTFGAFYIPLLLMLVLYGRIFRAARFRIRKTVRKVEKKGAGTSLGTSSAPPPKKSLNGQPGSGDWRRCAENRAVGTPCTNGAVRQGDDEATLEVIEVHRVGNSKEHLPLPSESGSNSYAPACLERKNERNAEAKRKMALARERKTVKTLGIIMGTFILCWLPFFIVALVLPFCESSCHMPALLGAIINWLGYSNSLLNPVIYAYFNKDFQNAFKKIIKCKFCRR
assayDetails: In vitro inhibitory concentration against radioligand [3H]8-OH-DPAT binding to 5-hydroxytryptamine 1A receptor in rat hippocampal membrane.
Listed here are compounds together with their documented pIC50.
By convention, pIC50 is the negative base-10 log of a molar concentration.

>  <compoundStructureString>
Cc1sc2nc(SCCCN3CCN(c4ncccn4)CC3)n(N)c(=O)c2c1C

>  <pIC50>
8.17

$$$$
>  <compoundStructureString>
Cc1sc2nc(SCCCN3CCN(c4ncccn4)CC3)n(C)c(=O)c2c1C

>  <pIC50>
7.19

$$$$
>  <compoundStructureString>
COc1ccccc1N1CCN(CCCOc2nc(SC)nc3sc4c(c23)CCCC4)CC1

>  <pIC50>
5.85

$$$$
>  <compoundStructureString>
Cc1sc2nc(SCCCN3CCN(c4ccccc4Cl)CC3)[nH]c(=O)c2c1C

>  <pIC50>
6.34

$$$$
>  <compoundStructureString>
O=c1[nH]c(SCCCN2CCN(c3cccc4ccccc34)CC2)nc2sc3c(c12)CCCC3

>  <pIC50>
6.43

$$$$
>  <compoundStructureString>
COc1ccccc1N1CCN(CCCSc2nc3sc4c(c3c(=O)n2C)CCCC4)CC1

>  <pIC50>
8.15

$$$$
>  <compoundStructureString>
COc1ccccc1N1CCN(CCCSc2nc(O)c3c(n2)sc2ccccc23)CC1

>  <pIC50>
7.34

$$$$
>  <compoundStructureString>
COc1ccccc1N1CCN(CCCSc2nc(O)c3c(C)c(C)sc3n2)CC1

>  <pIC50>
7.62

$$$$

Give UniProtKB P19327 pIC50 for "COc1ccccc1N1CCN(CCCSc2nc(O)c3cc(-c4ccccc4)sc3n2)CC1"
6.41

Give UniProtKB P19327 pIC50 for "COc1ccccc1C1CCN(CCCSc2nc3sc(C)c(C)c3c(=O)n2N)CC1"
9.10

###

Listed here are molecules together with their documented Selectivity.
targetOrSystem: Serotonin 1a (5-HT1a) receptor/Adrenergic receptor alpha-1 (Rattus norvegicus) (UniProt P15823+P23944+P43140+P19327)
assayDetails: Selectivity for alpha-1-adrenergic receptor to that of 5-HT1A receptor.
Type: protein assay
Lab note: jot down the number only; don't add units.

Known results for molecules:
>  <compoundStructureString>
Oc1nc(SCCCN2CCN(c3cccc4ccccc34)CC2)nc2sc(-c3ccccc3)cc12

>  <Selectivity>
1

$$$$
>  <compoundStructureString>
Oc1nc(SCCCN2CCN(c3ccccc3Cl)CC2)nc2sc3c(c12)CCCC3

>  <Selectivity>
0.2

$$$$
>  <compoundStructureString>
COc1ccccc1N1CCN(CCCSc2nc(O)c3c(n2)sc2ccccc23)CC1

>  <Selectivity>
2

$$$$

What measured Selectivity goes with "Cc1sc2nc(SCCCN3CCN(c4cccc(Cl)c4)CC3)nc(O)c2c1C" ?
0.3

What measured Selectivity goes with "Cc1sc2nc(SCCCN3CCN(c4ncccn4)CC3)n(N)c(=O)c2c1C" ?
74

What measured Selectivity goes with "COc1ccccc1N1CCN(CCCSc2nc(O)c3c4c(sc3n2)CCCC4)CC1" ?
0.6

###

targetOrSystem: 5-hydroxytryptamine receptor 1B (Rattus norvegicus, UniProt P28564)
Sequence (P28564 whole entry): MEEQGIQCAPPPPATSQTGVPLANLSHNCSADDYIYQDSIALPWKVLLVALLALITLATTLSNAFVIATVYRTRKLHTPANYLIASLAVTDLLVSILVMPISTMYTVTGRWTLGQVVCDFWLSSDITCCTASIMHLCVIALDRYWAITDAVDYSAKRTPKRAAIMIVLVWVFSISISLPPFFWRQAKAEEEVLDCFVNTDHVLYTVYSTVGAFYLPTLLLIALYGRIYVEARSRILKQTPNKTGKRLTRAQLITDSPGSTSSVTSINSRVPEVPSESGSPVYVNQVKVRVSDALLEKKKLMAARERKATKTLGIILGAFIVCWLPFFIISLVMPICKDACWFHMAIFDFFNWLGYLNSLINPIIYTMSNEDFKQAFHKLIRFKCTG
assayDetails: In vitro inhibitory concentration against radioligand [3H]5-HT binding to 5-hydroxytryptamine 1B receptor in rat striatal membrane
valueKind: pIC50
By convention, pIC50 is the negative base-10 log of a molar concentration.

>  <compoundStructureString>
COc1ccccc1N1CCN(CCCSc2nc3sc(C)c(C)c3c(=O)n2N)CC1

>  <pIC50>
6.15

$$$$

Shift focus to the following entry.
What measured pIC50 goes with "COc1ccccc1C1CCN(CCCSc2nc3sc(C)c(C)c3c(=O)n2N)CC1" ?
5.85

###

targetOrSystem: D(2) dopamine receptor (Rattus norvegicus)
assayDetails: In vitro inhibitory concentration against radioligand [3H]spiperone binding to Dopamine receptor D2 in rat striatal membrane
valueKind: pIC50
By convention, pIC50 is the negative base-10 log of a molar concentration.

>  <compoundStructureString>
Cc1sc2nc(SCCCN3CCN(c4ncccn4)CC3)n(N)c(=O)c2c1C

>  <pIC50>
5.70

$$$$

Give D(2) dopamine receptor (Rattus norvegicus) pIC50 for "COc1ccccc1N1CCN(CCCSc2nc3sc(C)c(C)c3c(=O)n2N)CC1"
7.22

Give D(2) dopamine receptor (Rattus norvegicus) pIC50 for "COc1ccccc1C1CCN(CCCSc2nc3sc(C)c(C)c3c(=O)n2N)CC1"
7.00

###

targetOrSystem: Serotonin 3 (5-HT3) receptor (Rattus norvegicus, UniProt P35563+Q9JJ16)
Sequence (P35563 whole entry): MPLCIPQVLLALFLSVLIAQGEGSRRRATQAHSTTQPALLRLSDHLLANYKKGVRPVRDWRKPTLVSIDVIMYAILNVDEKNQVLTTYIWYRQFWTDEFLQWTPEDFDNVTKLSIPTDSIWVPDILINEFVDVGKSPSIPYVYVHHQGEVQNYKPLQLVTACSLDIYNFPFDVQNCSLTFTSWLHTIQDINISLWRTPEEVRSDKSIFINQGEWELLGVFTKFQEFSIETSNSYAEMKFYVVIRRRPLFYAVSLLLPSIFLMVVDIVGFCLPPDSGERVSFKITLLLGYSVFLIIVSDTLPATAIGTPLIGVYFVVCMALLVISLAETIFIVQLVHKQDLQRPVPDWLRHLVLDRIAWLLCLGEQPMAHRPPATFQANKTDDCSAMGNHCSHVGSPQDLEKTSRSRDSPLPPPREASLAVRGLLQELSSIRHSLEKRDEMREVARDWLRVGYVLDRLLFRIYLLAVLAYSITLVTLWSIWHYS
Sequence (Q9JJ16 whole entry): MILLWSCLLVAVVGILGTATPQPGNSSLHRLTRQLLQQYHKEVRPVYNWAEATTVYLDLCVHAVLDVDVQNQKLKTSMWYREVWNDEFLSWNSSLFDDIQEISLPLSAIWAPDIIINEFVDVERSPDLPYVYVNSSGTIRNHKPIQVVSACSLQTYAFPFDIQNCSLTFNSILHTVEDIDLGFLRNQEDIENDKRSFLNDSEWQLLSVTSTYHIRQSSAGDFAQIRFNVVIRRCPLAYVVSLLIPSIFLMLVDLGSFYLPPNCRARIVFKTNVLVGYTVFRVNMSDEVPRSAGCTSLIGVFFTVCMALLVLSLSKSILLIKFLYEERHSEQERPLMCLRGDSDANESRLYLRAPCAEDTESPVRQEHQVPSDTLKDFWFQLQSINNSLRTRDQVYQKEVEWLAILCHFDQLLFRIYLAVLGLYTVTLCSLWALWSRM
assayDetails: In vitro inhibitory concentration against radioligand [3H]BRL-43694 binding to 5-hydroxytryptamine 3 receptor in rat cortical membrane
valueKind: IC50 (nM)
Write the number in nM without appending the unit.

>  <compoundStructureString>
COc1ccccc1C1CCN(CCCSc2nc3sc(C)c(C)c3c(=O)n2N)CC1

>  <resultUnit>
nM

>  <IC50>
600

$$$$

What measured IC50 goes with "COc1ccccc1N1CCN(CCCSc2nc3sc(C)c(C)c3c(=O)n2N)CC1" ?
800

What measured IC50 goes with "Cc1sc2nc(SCCCN3CCN(c4ncccn4)CC3)n(N)c(=O)c2c1C" ?
20

###

Listed here are compounds together with their documented IC50.
targetOrSystem: UniProt:P19327
assayDetails: In vitro inhibitory concentration against radioligand [3H]8-OH-DPAT binding to 5-hydroxytryptamine 1A receptor in rat hippocampal membrane.
Write the number in nM without appending the unit.

Known results for compounds:
>  <compoundStructureString>
Cc1sc2nc(SCCCN3CCN(c4cccc(Cl)c4)CC3)nc(O)c2c1C

>  <valueKind>
IC50

>  <resultUnit>
nM

>  <readoutValue>
986

$$$$
>  <compoundStructureString>
COc1ccccc1N1CCN(CCCSc2nc3sc4c(c3c(=O)n2N)CCCC4)CC1

>  <valueKind>
IC50

>  <resultUnit>
nM

>  <readoutValue>
1.3

$$$$
>  <compoundStructureString>
COc1ccccc1N1CCN(CCCSc2nc3sc(C)c(C)c3c(=O)n2Nc2ccccc2)CC1

>  <valueKind>
IC50

>  <resultUnit>
nM

>  <readoutValue>
497

$$$$
>  <compoundStructureString>
COc1ccccc1N1CCN(CCCn2c(SC)nc3sc4c(c3c2=O)CCCC4)CC1

>  <valueKind>
IC50

>  <resultUnit>
nM

>  <readoutValue>
511

$$$$
>  <compoundStructureString>
O=c1[nH]c(SCCCN2CCN(c3ccccc3Cl)CC2)nc2sc3c(c12)CCCC3

>  <valueKind>
IC50

>  <resultUnit>
nM

>  <readoutValue>
943

$$$$

Give UniProt:P19327 IC50 for "COc1ccccc1N1CCN(CCCSc2nc3sc(C)c(C)c3c(=O)n2C)CC1"
3

Give UniProt:P19327 IC50 for "Cc1sc2nc(SCCCN3CCN(c4cccc5ccccc45)CC3)[nH]c(=O)c2c1C"
355

Give UniProt:P19327 IC50 for "COc1ccccc1N1CCN(CCCSc2nc3sc(C)c(C)c3c(=O)n2N)CC1"
0.3

Give UniProt:P19327 IC50 for "Cc1sc2nc(SCCCN3CCN(c4ccccc4)CC3)n(N)c(=O)c2c1C"
3.3

Give UniProt:P19327 IC50 for "COc1ccccc1N1CCN(CCCSc2nc3sccc3c(=O)n2N)CC1"
1.2

Give UniProt:P19327 IC50 for "COc1ccccc1N1CCN(CCSc2nc3sc4c(c3c(=O)[nH]2)CCCC4)CC1"
97

Give UniProt:P19327 IC50 for "Cc1sc2nc(SCCCN3CCN(c4ncccn4)CC3)[nH]c(=O)c2c1C"
226

Give UniProt:P19327 IC50 for "Oc1nc(SCCCN2CCN(c3ncccn3)CC2)nc2sc3c(c12)CCCC3"
505
